species on record: Cavia porcellus; assay: Compound was measured for open epicutaneous test on sensitized guinea pig after sensitization of compound (Acetic acid 3-methylene-2-oxo-1-oxa-spiro[4.5]dec-4-yl ester); assay type: functional
Could you please report measured Sensitized animals for the items listed next?
Answer with a number only.

Which Sensitized animals is reported for this compound? C=C1CCOC1=O [TULIPALINE A] 0

Entry C=C1C(=O)OC[C@@H]1O has what Sensitized animals? 0

What does the data say about its Sensitized animals? Entry: C=C1C(=O)OC2(CCCCC2)[C@@H]1OC(C)=O 6

I'd like to know its Sensitized animals. The compound in question is C=C1C(=O)OC[C@@H]1OC(C)=O 0

Entry under review: C=C1CC2(CCCCC2)OC1=O . Reported Sensitized animals? 6

Please report the recorded Sensitized animals for C=C1C(=O)OC2(CCCCC2)[C@@H]1O . 6

----------
species: Cavia porcellus; test: Compound was measured for open epicutaneous test on sensitized guinea pig after sensitization of compound (Acetic acid 4-methylene-5-oxo-tetrahydro-furan-3-yl ester) average skin reaction; format: functional
assay_readout: Average skin reaction

Endpoint output: Average skin reaction of C=C1CC2(CCCCC2)OC1=O . Value? 0

Please look up its Average skin reaction: C=C1C(=O)OC2(CCCCC2)[C@@H]1O 0

State the recorded Average skin reaction for this entry: C=C1C(=O)OC[C@@H]1OC(C)=O 0.8

If you can, please state the reported Average skin reaction value of C=C1C(=O)OC2(CCCCC2)[C@@H]1OC(C)=O . 0

Name the reported Average skin reaction value associated with the molecule C=C1CCOC1=O [TULIPALINE A] 1.1

----------
species on record: Cavia porcellus; test: Compound was measured for open epicutaneous test on sensitized guinea pig after sensitization of compound (4-Hydroxy-3-methylene-dihydro-furan-2-one) average skin reaction; assay type: functional
For each entry below, report its Average skin reaction value.
Output spec: single numeric token, no unit.

// lookup Average skin reaction for C=C1CC2(CCCCC2)OC1=O 0

Requested read-out: Average skin reaction. Entry: C=C1C(=O)OC2(CCCCC2)[C@@H]1OC(C)=O 0

Find the recorded Average skin reaction belonging to C=C1C(=O)OC[C@@H]1OC(C)=O and report it. 0.3

Give the measured Average skin reaction of C=C1C(=O)OC2(CCCCC2)[C@@H]1O . 0

// Average skin reaction lookup, key: C=C1CCOC1=O 1.1
